TGT: T1, human IL-6 (human, UniProt P05231 30-212)
T1 construct: Recombinant protein was R&D Systems 206-IL/CF where stated; It was biotinylated in the yeast display assays and amine-coupled to the chip in SPR; also called free IL-6; biotinylated human IL-6
TEST_PROTOCOL: yeast surface display of Fab, flow cytometry (APC-A = bound biotinylated IL-6, FITC-A = display) after overnight competition with 2 µM IL-6
ENDPOINT_LABEL: Fold increase in binding/display over wt (fold)
Answer with a number only, understood to be in fold.

*Q* Report Fold increase in binding/display over wt for EBI-029 Fab variant S30P/I51T/S55G (Fab, V domains shown) VH: QVQLVQSGAEVKKPGSSVKVSCKASGYALPNYLIEWVRQAPGQGLEWMGVTTPGGGTINYAQKFQGRVTITADESTSTAYMELSSLRSEDTAVYYCARSRWDPLYYYALEYWGQGTTVTVSS VL: DIVMTQSPDSLAVSLGERATINCRASESVDNYGIPFMNWYQQKPGQPPKLLIYAASNRGSGVPDRFSGSGSGTDFTLTISSLQAEDVAVYYCQQSEEVPLTFGQGTKLEIKR please.
*A* 2.52
